Value source: paper PMC8956739

What MIC P. aeruginosa ATCC 27853 was measured for each of the following?
test system: P. aeruginosa ATCC 27853; assay type: cell-based, Pseudomonas aeruginosa; settings: ATCC 27853
Residues, ends and D or L forms follow the SMILES beside them.
Number in µg/mL, nothing else.

Exercise: Using the record for CCCCCCCC(=O)N[C@@H](CCN)C(=O)N[C@H](C(=O)N[C@@H](CCN)C(=O)N[C@H]1CCNC(=O)[C@H]([C@@H](C)O)NC(=O)[C@H](CCN)NC(=O)[C@H](CCN)NC(=O)[C@H](C(C)C)NC(=O)[C@@H](CC(C)C)NC(=O)[C@H](CCN)NC1=O)[C@@H](C)O [Lipopeptide F225] (HELM PEPTIDE1{[CCCCCCCC(=O)[*:2]].[Dab].T.[Dab].[Dab].[Dab].[dL].V.[Dab].[Dab].T}$PEPTIDE1,PEPTIDE1,5:R3-11:R2$$$V2.0) , report its MIC P. aeruginosa ATCC 27853.
Solution: 1

Exercise: What MIC P. aeruginosa ATCC 27853 value was documented for this molecule, CCCCCCCC(=O)N[C@@H](CCN)C(=O)N[C@H](C(=O)N[C@@H](CN)C(=O)N[C@H]1CCNC(=O)[C@H]([C@@H](C)O)NC(=O)[C@H](CCN)NC(=O)[C@H](CCN)NC(=O)[C@H]([C@@H](C)O)NC(=O)[C@@H](CC(C)C)NC(=O)[C@H](CCN)NC1=O)[C@@H](C)O [Lipopeptide F251] (HELM PEPTIDE1{[CCCCCCCC(=O)[*:2]].[Dab].T.[NC[C@H](N[*:1])C(=O)[*:2]].[Dab].[Dab].[dL].T.[Dab].[Dab].T}$PEPTIDE1,PEPTIDE1,5:R3-11:R2$$$V2.0) ?
Solution: 0.5

Exercise: Query (molecule): CCCCCCCC(=O)N[C@@H](CCN)C(=O)N[C@H](C(=O)N[C@@H](CCN)C(=O)N[C@H]1CCNC(=O)[C@H]([C@@H](C)O)NC(=O)[C@H](CCN)NC(=O)[C@H](CCN)NC(=O)[C@H](CO)NC(=O)[C@@H](CC(C)C)NC(=O)[C@H](CCN)NC1=O)[C@@H](C)O [Lipopeptide F227] (HELM PEPTIDE1{[CCCCCCCC(=O)[*:2]].[Dab].T.[Dab].[Dab].[Dab].[dL].S.[Dab].[Dab].T}$PEPTIDE1,PEPTIDE1,5:R3-11:R2$$$V2.0) ; field requested: MIC P. aeruginosa ATCC 27853
Solution: 0.5

Exercise: Give its MIC P. aeruginosa ATCC 27853 value. Item: CC[C@@H]1NC(=O)[C@@H](CC(C)C)NC(=O)[C@H](CCN)NC(=O)[C@@H](NC(=O)[C@H](CN)NC(=O)[C@@H](NC(=O)[C@H](CCN)NC(=O)c2ccc(Cl)cc2)[C@@H](C)O)CCNC(=O)[C@H]([C@@H](C)O)NC(=O)[C@H](CCN)NC(=O)[C@H](CCN)NC1=O [Lipopeptide F378] (HELM PEPTIDE1{[O=C(c1ccc(Cl)cc1)[*:2]].[Dab].T.[NC[C@H](N[*:1])C(=O)[*:2]].[Dab].[Dab].[dL].[Abu].[Dab].[Dab].T}$PEPTIDE1,PEPTIDE1,5:R3-11:R2$$$V2.0)
Solution: 0.5

Exercise: Value lookup for MIC P. aeruginosa ATCC 27853; key = CCCCCCCC(=O)N[C@@H](CCN)C(=O)N[C@H](C(=O)N[C@@H](CCN)C(=O)N[C@H]1CCNC(=O)[C@H]([C@@H](C)O)NC(=O)[C@H](CCN)NC(=O)[C@H](CCN)NC(=O)[C@H]([C@@H](C)O)NC(=O)[C@@H](CC(C)C)NC(=O)[C@H](CCN)NC1=O)[C@@H](C)O [Lipopeptide F100] (HELM PEPTIDE1{[CCCCCCCC(=O)[*:2]].[Dab].T.[Dab].[Dab].[Dab].[dL].T.[Dab].[Dab].T}$PEPTIDE1,PEPTIDE1,5:R3-11:R2$$$V2.0)
Solution: 0.5

Exercise: // returns reported MIC P. aeruginosa ATCC 27853 for input CCCCCCCC(=O)N[C@@H](CCN)C(=O)N[C@H](C(=O)N[C@@H](CN)C(=O)N[C@H]1CCNC(=O)[C@H]([C@@H](C)O)NC(=O)[C@H](CCN)NC(=O)[C@H](CCN)NC(=O)[C@H](CC)NC(=O)[C@@H](CC(C)C)NC(=O)[C@H](CCN)NC1=O)[C@@H](C)O [Lipopeptide F287] (HELM PEPTIDE1{[CCCCCCCC(=O)[*:2]].[Dab].T.[NC[C@H](N[*:1])C(=O)[*:2]].[Dab].[Dab].[dL].[Abu].[Dab].[Dab].T}$PEPTIDE1,PEPTIDE1,5:R3-11:R2$$$V2.0)
Solution: 0.5

Exercise: Bench note: what MIC P. aeruginosa ATCC 27853 did CCCCCCCC(=O)N[C@@H](CCN)C(=O)N[C@H](C(=O)N[C@@H](CCN)C(=O)N[C@H]1CCNC(=O)[C@H]([C@@H](C)O)NC(=O)[C@H](CCN)NC(=O)[C@H](CCN)NC(=O)[C@H](C)NC(=O)[C@@H](CC(C)C)NC(=O)[C@H](CCN)NC1=O)[C@@H](C)O [Lipopeptide F124] (HELM PEPTIDE1{[CCCCCCCC(=O)[*:2]].[Dab].T.[Dab].[Dab].[Dab].[dL].A.[Dab].[Dab].T}$PEPTIDE1,PEPTIDE1,5:R3-11:R2$$$V2.0) show?
Solution: 0.5

Exercise: Dear colleague, I am looking for the recorded MIC P. aeruginosa ATCC 27853 of the following molecule: CCCCCCCC(=O)N[C@@H](CCN)C(=O)N[C@H](C(=O)N[C@H](CN)C(=O)N[C@H]1CCNC(=O)[C@H]([C@@H](C)O)NC(=O)[C@H](CCN)NC(=O)[C@H](CCN)NC(=O)[C@H]([C@@H](C)O)NC(=O)[C@@H](CC(C)C)NC(=O)[C@H](CCN)NC1=O)[C@@H](C)O [Lipopeptide F300] (HELM PEPTIDE1{[CCCCCCCC(=O)[*:2]].[Dab].T.[NC[C@@H](N[*:1])C(=O)[*:2]].[Dab].[Dab].[dL].T.[Dab].[Dab].T}$PEPTIDE1,PEPTIDE1,5:R3-11:R2$$$V2.0)
Solution: 0.25
